- target_of_assay: Vasopressin V1a receptor (Homo sapiens)
- Sequence (P37288 whole entry): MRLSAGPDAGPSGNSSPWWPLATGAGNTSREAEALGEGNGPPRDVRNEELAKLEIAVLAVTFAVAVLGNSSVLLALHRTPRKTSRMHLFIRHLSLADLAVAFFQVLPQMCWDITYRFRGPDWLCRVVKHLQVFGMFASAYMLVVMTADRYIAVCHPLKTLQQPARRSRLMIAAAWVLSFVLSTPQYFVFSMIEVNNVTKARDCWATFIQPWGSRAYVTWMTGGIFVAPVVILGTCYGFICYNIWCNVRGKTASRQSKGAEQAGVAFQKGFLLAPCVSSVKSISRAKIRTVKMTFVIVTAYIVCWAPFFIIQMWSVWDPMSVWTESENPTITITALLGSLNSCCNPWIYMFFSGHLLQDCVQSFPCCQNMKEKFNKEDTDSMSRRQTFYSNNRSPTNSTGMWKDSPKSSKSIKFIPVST
- measurement_description: Antagonist activity at human cloned vasopressin V1A receptor by cell based beta-lactamase reporter gene assay
value_type: Ki (µM)

Record excerpt, results attached:
line_notation: CCN(C(=O)c1cnc(-c2cccc(F)c2C)cn1)c1ccc(OC)nc1
reading: 5.9
--
line_notation: CCN(C(=O)c1cnc(-c2ccccc2C)cn1)c1ccc(OC)nc1
reading: 2.3
--
line_notation: CCN(C(=O)c1cnc(-c2cccc(C)c2C)cn1)c1ccc(OC)nc1
reading: 0.472
--
line_notation: COCCN(C(=O)c1cnc(-c2ccccc2C)cn1)c1ccc(OC)nc1
reading: 3.3
--
line_notation: COCCN(C(=O)c1cnc(-c2ccc(C#N)cc2C)cn1)c1ccc(OC)nc1
reading: 12

I = CCN(C(=O)c1cnc(-c2ccc(C#N)cc2C)cn1)c1ccc(OC)nc1
II = COCCN(C(=O)c1cnc(-c2cccc(C)c2C)cn1)c1ccc(OC)nc1
Exercise: Lab note: record which item had the higher Ki, I or II . // caller expects the label of the chosen entry
Key: I

A = COc1ccc(N(C)C(=O)c2cnc(-c3ccccc3C)cn2)cn1
B = COc1ccc(N(C)C(=O)c2cnc(-c3ccc(F)cc3C)cn2)cn1
Exercise: Pick the one with the larger Ki: A vs B Give the label of your selection.
Key: B

----------
- target_of_assay: Vasopressin V2 receptor (Homo sapiens, UniProt P30518)
- Sequence (P30518 whole entry): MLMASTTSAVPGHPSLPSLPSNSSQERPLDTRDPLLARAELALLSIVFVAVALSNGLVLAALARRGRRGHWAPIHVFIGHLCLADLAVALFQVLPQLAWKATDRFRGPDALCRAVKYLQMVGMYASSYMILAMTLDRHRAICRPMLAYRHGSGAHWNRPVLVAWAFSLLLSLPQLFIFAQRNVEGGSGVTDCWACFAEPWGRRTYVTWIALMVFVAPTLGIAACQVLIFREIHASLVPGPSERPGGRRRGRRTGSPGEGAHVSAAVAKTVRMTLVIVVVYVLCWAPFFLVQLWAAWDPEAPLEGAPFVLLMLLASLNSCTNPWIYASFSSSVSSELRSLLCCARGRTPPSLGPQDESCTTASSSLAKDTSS
- measurement_description: Antagonist activity at human cloned vasopressin V2 receptor by cell based beta-lactamase reporter gene assay
pKi: −log10 of the molar value.
value_type: pKi

line_notation: COCCN(C(=O)c1cnc(-c2ccccc2C)cn1)c1ccc(OC)nc1
target_of_assay: Vasopressin V2 receptor (Homo sapiens, UniProt P30518)
value_type: pKi
reading: < 5.00
--
line_notation: COc1ccc(N(C)C(=O)c2cnc(-c3ccc(C#N)cc3C)cn2)cn1
target_of_assay: Vasopressin V2 receptor (Homo sapiens, UniProt P30518)
value_type: pKi
reading: < 5.00
--
line_notation: COCCN(C(=O)c1cnc(-c2ccc(C#N)cc2C)cn1)c1ccc(OC)nc1
target_of_assay: Vasopressin V2 receptor (Homo sapiens, UniProt P30518)
value_type: pKi
reading: < 5.00

Exercise: I would be grateful if you could share the reported pKi for COc1ccc(N(C(=O)c2cnc(-c3cccc(C)c3C)cn2)C(C)C)cn1 .
Key: 5.64

Exercise: Quick one: COc1ccc(N(C)C(=O)c2cnc(-c3ccccc3C)cn2)cn1
Key: < 5.00

----------
- target_of_assay: Oxytocin receptor (Homo sapiens)
- Sequence (P30559 whole entry): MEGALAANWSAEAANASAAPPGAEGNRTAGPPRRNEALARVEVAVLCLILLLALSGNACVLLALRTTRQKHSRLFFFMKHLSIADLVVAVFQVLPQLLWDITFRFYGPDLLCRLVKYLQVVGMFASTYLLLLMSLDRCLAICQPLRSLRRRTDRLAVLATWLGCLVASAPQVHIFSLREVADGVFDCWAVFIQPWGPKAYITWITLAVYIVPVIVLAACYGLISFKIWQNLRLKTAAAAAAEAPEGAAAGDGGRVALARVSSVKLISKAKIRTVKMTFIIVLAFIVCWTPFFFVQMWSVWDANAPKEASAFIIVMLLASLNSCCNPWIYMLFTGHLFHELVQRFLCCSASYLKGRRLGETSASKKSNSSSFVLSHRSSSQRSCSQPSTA
- measurement_description: Antagonist activity at human cloned OT receptor by cell based beta-lactamase reporter gene assay
value_type: Ki (nM)

Example compounds with recorded Ki:
line_notation: COc1ccc(N(C(=O)c2cnc(-c3ccccc3C)cn2)C(C)C)cn1
Ki / nM: 150
--
line_notation: CCN(C(=O)c1cnc(-c2ccc(C#N)cc2C)cn1)c1ccc(OC)nc1
Ki / nM: 393
--
line_notation: COc1ccc(N(C(=O)c2cnc(-c3cccc(C)c3C)cn2)C(C)C)cn1
Ki / nM: 14
--
line_notation: COc1ccc(N(C)C(=O)c2cnc(-c3ccc(F)cc3C)cn2)cn1
Ki / nM: 218
--
line_notation: CCN(C(=O)c1cnc(-c2cccc(F)c2C)cn1)c1ccc(OC)nc1
Ki / nM: 29
--
line_notation: COCCN(C(=O)c1cnn(-c2ccccc2)c1C)c1ccc(OC)nc1
Ki / nM: 98
--
line_notation: COCCN(C(=O)c1cnc(-c2ccc(C#N)cc2C)cn1)c1ccc(OC)nc1
Ki / nM: 433
--
line_notation: CCN(C(=O)c1cnc(-c2ccccc2C)cn1)c1ccc(OC)nc1
Ki / nM: 129

a = CCN(C(=O)c1ccc(-c2ccc(OC)cc2)[nH]c1=O)c1ccc(OC)nc1
b = CCN(C(=O)COc1ccc2ccccc2c1)c1ccc(OC)nc1
c = COc1ccc(N(C)C(=O)c2cnc(-c3ccc(C#N)cc3C)cn2)cn1
Exercise: rank_up(items): orders items by reported Ki in ascending numerical order. Hello, could you send the labels back in the order asked? Thank you.
Key: b, a, c
(b: 48 nM, a: 84 nM, c: 620 nM)
